assay: CD secondary structure of GOLPH3 proteins (BestSel fits); assay type: physicochemical, human; settings: 10 μM, 100 mM NaCl, 50 mM Tris pH 7.4, 1 mM TCEP, 20 °C
assay endpoint: % beta parallel (%)
Number only, in %; omit the unit.

Incoming: Bench note: what % beta parallel did D247R: recombinant GOLPH3 mutant D247R (protein, UniProt Q9H4A6 1-298, looked up, variant D247R) Golgi phosphoprotein 3: MTSLTQRSSGLVQRRTEASRNAADKERAAGGGAGSSEDDAQSRRDEQDDDDKGDSKETRLTLMEEVLLLGLKDREGYTSFWNDCISSGLRGCMLIELALRGRLQLEACGMRRKSLLTRKVICKSDAPTGDVLLDEALKHVKETQPPETVQNWIELLSGETWNPLKLHYQLRNVRERLAKNLVEKGVLTTEKQNFLLFDMTTHPLTNNNIKQRLIKKVQEAVLDKWVNDPHRMDRRLLALIYLAHASRVLENAFAPLLDEQYDLATKRVRQLLDLDPEVECLKANTNEVLWAVVAAFTK show?
Outgoing: 0
